Test system: MDA-MB-468 breast
experiment.summary: NCI tumour cell line growth inhibition, 48 h; in the data active = GI50 below about 0.43 µM; inactive = the rest
Classes to choose from: active, inactive

Previously resolved entries follow.
| compound | assayed.target | class |
| --- | --- | --- |
| Oc1ccc(C(c2ccc(O)cc2)c2ccc(Br)cn2)cc1 | MDA-MB-468 breast | active |
| c1ccc2c(c1)Nc1ccncc1S2 | MDA-MB-468 breast | inactive |
| Cc1ccc(-c2nc([P+](c3ccccc3)(c3ccccc3)c3ccccc3)c(S(=O)(=O)c3ccc(C)cc3)o2)cc1 | MDA-MB-468 breast | inactive |
| COC(=O)[C@H]1CCCN1C(=O)[C@H]1CCCN1C(=O)[C@@H](Cc1c[nH]c2ccccc12)NC(=S)Nc1cc(C(F)(F)F)cc(C(F)(F)F)c1 | MDA-MB-468 breast | inactive |
| Nc1n[nH]c2cccc(C#Cc3cccc(NC(=O)Nc4cc(C(F)(F)F)cc(C(F)(F)F)c4)c3)c12 | MDA-MB-468 breast | inactive |
| Cc1cc(C#Cc2ccc(C(C)(C)C)cc2)ccc1-n1c(/C=C/c2ccc(O)cc2O)nc2ccccc2c1=O | MDA-MB-468 breast | inactive |
| C#CCNC(=O)[C@H](CC)[C@H]1CC[C@H](C)[C@H]([C@@H](C)[C@H](O)[C@H](C)C(=O)[C@H](CC)C2O[C@]3(C=CC(=O)[C@]4(CC[C@@](C)([C@H]5CC[C@](O)(CC)[C@H](C)O5)O4)O3)[C@H](C)C[C@@H]2C)O1 (stereo partly drawn) | MDA-MB-468 breast | inactive |
| CC1OC(OC2C(O)CC(OC3C(O)CC(OC4CCC5(C)C(CCC6C5CC(O)C5(C)C(C7=CC(=O)OC7)CCC65O)C4)OC3C)OC2C)CC(O)C1O (stereo not drawn) | MDA-MB-468 breast | active |

Query block: Kindly provide the recorded test outcome for the following compound: `Cc1ccc(C(=O)Nc2ccc(-n3ccnc3)c(C(F)(F)F)c2)cc1C#Cc1cnc2cccnn12`
Result block: inactive

Query block: I would be grateful if you could indicate the recorded call for `COC(=O)c1cncc(/C=C/c2c(C)cc(O)cc2C)c1` .
Result block: inactive

Query block: Dear all, I need the recorded test outcome for `COc1cc2nc(-c3cc(F)ccc3O)nc(N[C@@H]3CNC[C@H]3C(C)(C)O)c2cc1OC` , thank you.
Result block: inactive

Query block: Answer briefly: the call reported for `NS(=O)(=O)c1ccc(-c2cc3ccncc3cc2OCc2ccccc2)cc1` in this assay.
Result block: inactive

Query block: What did this assay record as the result for `COc1cc(/C=C/C(=O)c2cccc(-n3cc(-c4ccc(Cl)cc4)[nH]c3=O)c2)cc(OC)c1OC` ?
Result block: inactive

###

System: MDA-MB-468 breast
experiment.summary: NCI tumour cell line growth inhibition, 48 h
// Not satisfied strictly below 6 µM in TGI; Satisfied otherwise

| molecule | class |
| --- | --- |
| O=C(/C=C/c1cccc(O)c1)c1cccc(-n2cc(-c3ccccc3)[nH]c2=O)c1 | Satisfied |
| CCCCCO/N=C\c1c2c(O)c3c(O)c(C)c4c(c3c1O)C(=O)C(C)(O/C=C\C(OC)C(C)C(OC(C)=O)C(C)C(O)C(C)C(O)C(C)/C=C\C=C(\C)C(=O)N2)O4 (stereo not drawn) | Satisfied |
| O=C(CC1(O)C(=O)N(Cc2ccccc2)c2ccccc21)c1ccc(C(=O)NCC2CCC3(CC2)OOC2(CCCCC2)OO3)cc1 (stereo not drawn) | Not satisfied |
| CC(C)(O)CNc1nc(Nc2ccnc(C(F)(F)F)c2)nc(-c2cccc(C(F)(F)F)n2)n1 | Satisfied |

Query block: Check this molecule for TGI at or above 6 µM: `C(=N/N(Cc1ccccc1)Cc1ccccc1)/c1ccccc1`
Result block: Satisfied
